# systemUnderTest: HLA-A*30:01
# assayExplanation: IEDB peptide-MHC binding, purified MHC/competitive/radioactivity; filed as Kd, often an IC50 or EC50 that approximates it; bounds were set here for any values at or beyond the usual limits of such assays
# conditionsUsed: source organism: Dengue virus 4 Philippines/H241/1956

sequenceData | Kd
ITFLRVLSIP | 828 nM
KKKTWLVHK | 470 nM

---

# systemUnderTest: HLA-B*15:01
# assayExplanation: IEDB peptide-MHC binding, purified MHC/competitive/radioactivity; filed as Kd, often an IC50 or EC50 that approximates it; bounds were set here for any values at or beyond the usual limits of such assays
# conditionsUsed: source organism: Vaccinia virus WR
pKd: −log10 of the molar value.
propertyLabel: pKd

sequenceData | propertyLabel | relationalOperator | quantitativeReadout
FINMTGNHF | pKd | = | 7.79
RNKLSYRNK | pKd | ≤ | 4.53
ELCGAFLFY | pKd | = | 8.13
LLFNSSFCI | pKd | = | 6.98
RSISRTENF | pKd | = | 8.32
EEISTSLSF | pKd | = | 8.69
MLHCYESYM | pKd | = | 7.01
ELNNTQCHI | pKd | = | 5.91
FSFMYIESI | pKd | = | 6.72
SMKTVFQVF | pKd | = | 8.80
KQYKFYNQI | pKd | = | 5.18
YISKVFEHV | pKd | = | 7.03
LGSSFCLHA | pKd | ≤ | 4.59
ITYCLVTHM | pKd | = | 7.60
KLLSHFYPA | pKd | = | 7.41
LIITKVFSF | pKd | = | 8.11
WMINIMIHM | pKd | = | 6.18
ELYMYFNHV | pKd | = | 5.88
LYRPNIPLK | pKd | ≤ | 4.25
